Data origin, for the record: patent US20220041711A1

Field: koff. Provide a value for each of the binders that follow.
Target: T1, human LAIR-1-ECD (human, UniProt Q6GTX8 22-165)
T1 construct: Recombinant, expressed in mammalian cells; also called extracellular region of human LAIR-1
T1 chain: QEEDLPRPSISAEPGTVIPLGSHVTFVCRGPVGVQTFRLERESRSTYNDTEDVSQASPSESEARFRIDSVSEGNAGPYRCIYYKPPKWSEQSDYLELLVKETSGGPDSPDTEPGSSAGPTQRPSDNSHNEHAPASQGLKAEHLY
Assay: SPR (Biacore); antibody captured by anti-Fc; LAIR-1-ECD injected;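 note: Anti-Fc immobilized on a CM5 chip, LAIR-1-ECD (human or cynomolgus) injected at 3.3-10 nM and 25 °C, kinetics fitted by simultaneous global fit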

Data request: Quick check: koff of anti-LAIR-1 antibody 61H4 (antibody, V domains shown, Monoclonal antibody from immunized mice (hybridoma)) VH: EVQLQQSGPEVLKPGASVKISCKASGYTFTDYYYMNWVKQSHGKSLEWIGYIYPNNGATSYNQKFKGKATLTVDKSSSTAYMELRSLTSEDSAVYYCARDGYSSNYYTMDYWGQGTSVTVSS VL: DVQMIQSPSSLSASLGDIVTMTCQASQGTSINLNWFQQKPGKAPKLLIYGASNLEDGVPSRFSGSRYGTDFTLTISSLEDEDMATYFCLQHTYLPYTFGGGTKLEIK ?
Data returned: 4.9e-05 s⁻¹

Data request: Subsequent entry: anti-LAIR-1 antibody 47A1 (antibody, V domains shown, Monoclonal antibody from immunized mice (hybridoma)) VH: EVQLVESGGGLVQPKGSLKLSCAASGFTFNTYAIHWVRQAPGKGLEWVARIRSKSTNYATYYADSVKDRFTISRDDSQSMVFLQMNNLKTEDTAMYYCVRENWYYYALDYWGQGTSVTVSS VL: DIQMTQSPASLSASVGETVTITCRASGNIHNYLTWYQQKQGKSPQVLVYNAKTLEDGVPSRFSGSESGTQYSLKINSLQPEDFGSYYCQHFWSTPFTFGSGTKLEIK
Data returned: 0.00055 s⁻¹

Data request: Subsequent entry: anti-LAIR-1 antibody 47H1 (antibody, V domains shown, Monoclonal antibody from immunized mice (hybridoma)) VH: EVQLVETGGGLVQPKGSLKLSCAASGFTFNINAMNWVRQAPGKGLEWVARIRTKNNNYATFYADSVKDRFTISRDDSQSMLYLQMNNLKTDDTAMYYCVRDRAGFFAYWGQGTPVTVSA VL: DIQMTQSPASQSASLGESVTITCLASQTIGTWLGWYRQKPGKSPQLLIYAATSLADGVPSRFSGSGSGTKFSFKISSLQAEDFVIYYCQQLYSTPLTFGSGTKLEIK
Data returned: 0.0001 s⁻¹
